TARGET_OR_SYSTEM: T1, Chryseobacterium sp-62563 deamidase polypeptide (second polypeptide, deamidase domain), wildtype (Chryseobacterium sp-62563)
T1 sequence: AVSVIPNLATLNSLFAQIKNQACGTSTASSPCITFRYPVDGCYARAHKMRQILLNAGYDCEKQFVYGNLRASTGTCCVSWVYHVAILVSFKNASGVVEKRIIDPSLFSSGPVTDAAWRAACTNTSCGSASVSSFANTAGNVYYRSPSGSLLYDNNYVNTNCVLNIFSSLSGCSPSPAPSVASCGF
TEST_SUMMARY: cell-based or functional assay
ENDPOINT: Relative activity of maturated deamidase (% initial rate)

INSERT INTO results (binder, endpoint_result) VALUES
  ('Chryseobacterium sp-62563 propeptide F99P (protein) NQDPNLVAKESNETAMKDFGKTVPVGIEKEDGKFKISFMVTAQPYEIKDSKENAAYISMIKTAVENETPIHVFLKANTNEIAKVDKATDDDIRYFKSVPTKEVKEENRK', 33),
  ('Chryseobacterium sp-62563 propeptide K101A (protein) NQDPNLVAKESNETAMKDFGKTVPVGIEKEDGKFKISFMVTAQPYEIKDSKENAAYISMIKTAVENETPIHVFLKANTNEIAKVDKATDDDIRYFKSVFTAEVKEENRK', 36),
  ('Chryseobacterium sp-62563 propeptide V98M (protein) NQDPNLVAKESNETAMKDFGKTVPVGIEKEDGKFKISFMVTAQPYEIKDSKENAAYISMIKTAVENETPIHVFLKANTNEIAKVDKATDDDIRYFKSMFTKEVKEENRK', 41);

P: Chryseobacterium sp-62563 propeptide Y45L (protein) NQDPNLVAKESNETAMKDFGKTVPVGIEKEDGKFKISFMVTAQPLEIKDSKENAAYISMIKTAVENETPIHVFLKANTNEIAKVDKATDDDIRYFKSVFTKEVKEENRK
Q: Chryseobacterium sp-62563 propeptide D91M (protein) NQDPNLVAKESNETAMKDFGKTVPVGIEKEDGKFKISFMVTAQPYEIKDSKENAAYISMIKTAVENETPIHVFLKANTNEIAKVDKATDDMIRYFKSVFTKEVKEENRK
Two entries are listed, P and Q . Which one carries the higher Relative activity of maturated deamidase (% initial rate)? // respond with label for picked entry
P

P: Chryseobacterium sp-62563 propeptide V98A (protein) NQDPNLVAKESNETAMKDFGKTVPVGIEKEDGKFKISFMVTAQPYEIKDSKENAAYISMIKTAVENETPIHVFLKANTNEIAKVDKATDDDIRYFKSAFTKEVKEENRK
Q: Chryseobacterium sp-62563 propeptide T88R (protein) NQDPNLVAKESNETAMKDFGKTVPVGIEKEDGKFKISFMVTAQPYEIKDSKENAAYISMIKTAVENETPIHVFLKANTNEIAKVDKARDDDIRYFKSVFTKEVKEENRK
Endpoint returns the identifier whose Relative activity of maturated deamidase (% initial rate) is numerically larger, either P or Q . To answer, give the label that identifies your chosen option.
P
(P: 68, Q: 46)

A: Chryseobacterium sp-62563 propeptide V98H (protein) NQDPNLVAKESNETAMKDFGKTVPVGIEKEDGKFKISFMVTAQPYEIKDSKENAAYISMIKTAVENETPIHVFLKANTNEIAKVDKATDDDIRYFKSHFTKEVKEENRK
B: Chryseobacterium sp-62563 propeptide T100Q (protein) NQDPNLVAKESNETAMKDFGKTVPVGIEKEDGKFKISFMVTAQPYEIKDSKENAAYISMIKTAVENETPIHVFLKANTNEIAKVDKATDDDIRYFKSVFQKEVKEENRK
# compare Relative activity of maturated deamidase (% initial rate) for A vs B ; return the one with the smaller value Kindly state the label of the option you pick.
A
(A: 54, B: 79)

1: Chryseobacterium sp-62563 propeptide K21G (protein) NQDPNLVAKESNETAMKDFGGTVPVGIEKEDGKFKISFMVTAQPYEIKDSKENAAYISMIKTAVENETPIHVFLKANTNEIAKVDKATDDDIRYFKSVFTKEVKEENRK
2: Chryseobacterium sp-62563 propeptide F38C (protein) NQDPNLVAKESNETAMKDFGKTVPVGIEKEDGKFKISCMVTAQPYEIKDSKENAAYISMIKTAVENETPIHVFLKANTNEIAKVDKATDDDIRYFKSVFTKEVKEENRK
Consider 1 and 2 . Which of these has its Relative activity of maturated deamidase (% initial rate) at a higher number? Mark your answer with the label of the selected entry.
2
(2: 83, 1: 53)
